target: PfGCN5 bromodomain (Plasmodium falciparum, UniProt Q8IB67); assay: 1H CPMG NMR deconvolution of hit mixtures, PfGCN5; assay type: binding; conditions: 10 µM protein, 100 µM ligand
Sequence (Q8IB67 entry or part of it): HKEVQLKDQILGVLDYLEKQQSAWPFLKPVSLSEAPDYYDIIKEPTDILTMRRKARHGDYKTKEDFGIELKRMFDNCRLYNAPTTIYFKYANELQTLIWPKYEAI
PROPERTY_LABEL: PfGCN5 CPMG % decrease (%)
# output: bare number, implied unit %

COMPOUND	PfGCN5 CPMG % decrease (%)
CCCCNc1nc2c([nH]1)c(=O)n(C)c(=O)n2C	77

Prompt: Look up PfGCN5 CPMG % decrease for this compound: CCCCSc1nnc(-c2cn(C)nc2OC)n1CC
Completion: 36

Prompt: # iterate: Cc1nc(NCCNC(=O)C(C)C)cc(N2CCCC2)n1
Completion: 75

Prompt: And what about the compound CC(C)CS(=O)(=O)C1CN(S(=O)(=O)C(C)C)C1 ?
Completion: 22

Prompt: Moving on to CS(=O)(=O)N1CCC2(CC1)OC(=O)c1ccccc12
Completion: 100

Prompt: Request: Cc1ccc(C)c(S(=O)(=O)N2CCCC2C(=O)O)c1 (stereo not drawn)
Completion: 32

Prompt: What do you get for CC(C)(C)OC(=O)N1CC(Oc2ncccn2)C1 ?
Completion: 68

Prompt: Then this compound: Cc1nc(N2CCCC2)nc(C)c1NS(C)(=O)=O
Completion: 42

Prompt: Next compound up: O=C(C1CC=CCC1)N1CCC(c2ccc3c(c2)OCO3)C1 (stereo not drawn)
Completion: 58

----------
target: BPTF bromodomain (Homo sapiens); assay: 1H CPMG NMR deconvolution of hit mixtures, BPTF; format: binding; set-up: deconvolution of the hit mixtures using the non-fluorine-labeled bromodomains; made in house; host or cells: E. coli BL21(DE3); conditions: 10 µM protein, 100 µM ligand
# label = rule met if BPTF CPMG % decrease < 50% else rule not met

COMPOUND	GROUP_LABEL
O=C1CSCCN1	rule met
CCOC(=O)c1c(NC(C)=O)sc(C)c1C	rule not met
C1CC2NCCOC2C1.Cl (stereo not shown)	rule not met
COC(CNC(=O)C1CN(C(=O)c2cc(C)on2)C1)OC	rule met
C=CCNC1CCN(C)C1=O (stereo not shown)	rule met
Cc1cc(C)n(CC2CCNCC2)n1.Cl.Cl	rule met
c1cc(OCC2CO2)ccc1OCC1CO1 (stereo not shown)	rule not met
Cc1c(C(=O)O)n[nH]c1C1CC1	rule met
Cc1nc(NCCNC(=O)C(C)C)cc(N2CCCC2)n1	rule not met
O=C(NCCC(O)C1CC1)Nc1ccccc1Cl (stereo not shown)	rule met

Prompt: Threshold test, BPTF CPMG % decrease < 50%: CCOCCCNc1ncnc2c1cnn2C
Completion: rule met

Prompt: Moving on to Cc1nnc(CN)o1.Cl
Completion: rule met

Prompt: Same question for CCCSc1nnc2[nH]c(=O)c(C)c(C)n12 please.
Completion: rule met

Prompt: Moving on to the next compound: COc1ccc(C2CCCCN(S(C)(=O)=O)C2)cc1 (stereo not shown)
Completion: rule not met

Prompt: Try this compound next: CSCCC(C)(O)CNC(=O)NC1CCOCC1 (stereo not shown)
Completion: rule met

----------
Molecular target: PfGCN5 bromodomain (Plasmodium falciparum, UniProt Q8IB67)
Assay: 1H CPMG NMR deconvolution of hit mixtures, PfGCN5
Type: binding
Conditions: 10 µM protein, 100 µM ligand
Experimental: The second step is a ^1H CPMG NMR deconvolution of the hit mixtures using the non-fluorine-labeled bromodomains. ^1H CPMG NMR employs a T2 filter to take advantage of the difference in transverse relaxation time between protein and small molecules to filter out the bound-state ligand(s). Unlike the PrOF NMR assay, a single protein is assayed in each experiment. […]
Recorded PfGCN5 CPMG % decrease, one value per entry.
Kindly answer with a numeric value in %, unit omitted.

Below, 3 compounds whose answers are already recorded.
COMPOUND	PfGCN5 CPMG % decrease, %
O=C1CCCC2CN(Cc3ccccc3)CC12 (stereo not shown)	50
CC12CCC3(C)OCC(CO)(CO1)N23 (stereo not shown)	50
CC(C(=O)NCc1cnn2c1CCCC2)n1cccn1 (stereo not shown)	49

Prompt: Notebook entry, PfGCN5 bromodomain (Plasmodium falciparum, UniProt Q8IB67) assay: PfGCN5 CPMG % decrease of CC(C)CC(=O)NCc1nccc(N(C)C)n1 = ?
Completion: 50
